Reference for the values: paper PMC9931176

Molecular target: recombinant SARS-CoV-2 Mpro (Severe acute respiratory syndrome coronavirus 2)
Assay: SARS-CoV-2 Mpro inhibition assay (FRET-based proteolytic activity assay)
Assay type: biochemical
Conditions: substrate concentration-independent inhibition constant; 0.2 μM enzyme, 20 μM substrate, compound 125 to 0 μM, 2.5% DMSO; read-out: Ki

{"Compound": "C[C@@H]1O[C@@H](O[C@H]2[C@H](Oc3cc(O)c4c(=O)cc(-c5ccc(O)cc5)oc4c3)O[C@H](CO)[C@@H](O)[C@@H]2O)[C@H](O)[C@H](O)[C@H]1O [rhoifolin]", "Assayed Target": "recombinant SARS-CoV-2 Mpro (Severe acute respiratory syndrome coronavirus 2)", "Ki": "82 µM"}
